A collection of compounds and their measured growth
System: BT-549 breast
Assay: NCI-60 one-dose screen, 48 h (100 = growth as untreated, 0 = no growth, -100 = all killed)
Conditions: 10 µM unless noted
This is part of a sample that, as a whole, favours compounds with a hit. Of some 83,000 tested, about 20% had one in any assay.

Compound: CN1C(=O)/C(=C/C=C/c2ccco2)SC1=S
growth [%]: 55.1
//
Compound: C=CCn1c(SCC(=O)Nc2cccc(C(=O)/C=C/c3ccc(OC)c(OC)c3)c2)nc2ccccc2c1=O
growth [%]: 97.7
//
Compound: CC1CCc2c(sc3nc(SCC(=O)N/N=C/c4cccc(O)c4O)n(-c4ccccc4)c(=O)c23)C1 (configuration not stated)
growth [%]: 127
//
Compound: COc1cc(NC2=C(Cl)C(=O)c3nc(C)ccc3C2=O)cc(OC)c1
growth [%]: 24.1
//
Compound: COC[C@@]1(C)CC[C@]2(C)CC[C@]3(C)C(=CC[C@@H]4[C@@]5(C)CCCNC(C)(C)[C@@H]5CC[C@]43C)C2C1 (some centres not stated)
growth [%]: 87.4
//
Compound: CC(=O)Nc1ccc(NC(=O)Nc2cccc(-c3nc(-c4ccc(NC(=O)c5cccnc5)cc4Cl)no3)c2)cc1C(F)(F)F
growth [%]: -29.9
//
Compound: CCOC(=O)c1nn(-c2ccccc2)c(=O)c2c(N)c(C#N)c(-c3cccs3)cc12
growth [%]: 107
//
Compound: C#C[C@]1(O)CC[C@H]2[C@@H]3CC=C4c5sc(C6CC6)nc5CC[C@]4(C)[C@H]3CC[C@@]21C
growth [%]: 90.5
//
Compound: COC(=O)c1c(C(=O)OC)c2n(CC(=O)Nc3cccc4cccnc34)c3ccccc3n2c1C(=O)c1ccc(C)cc1
growth [%]: 110
//
Compound: COc1ccc(CCN2C(=O)CSC2=S)cc1OC
growth [%]: 110
//
Compound: CC(C)=CCc1c2c(c(O)c3c1O[C@]14C(=C[C@@H]5C[C@H]1C(C)(C)O[C@@]4(C/C=C(/C)C(=O)O)C5=O)C3=O)CC(O)C(C)(C)O2 (some centres not stated)
growth [%]: -14.3
//
Compound: O=C1[C@@H]2Cc3c([nH]c4ccccc34)[C@H](c3c(Cl)cccc3Cl)N2C(=O)CN1C1CCN(Cc2c(F)cccc2F)CC1
growth [%]: 80.4
//
Compound: O=C(/C=C/Nc1ccc(S(=O)(=O)O)cc1)c1ccc(F)cc1
growth [%]: 119
//
Compound: O=C(COc1ccc(C2SCC(=O)N2c2ccccc2)cc1)c1ccccc1 (configuration not stated)
growth [%]: 92
//
Compound: CCOC(=O)c1c(NCC(=O)Nc2cccc(Cl)c2)sc2c1CCCC2
growth [%]: 70.1
//
Compound: COC1=C(c2ccccc2)C(=O)C(OC)=C(c2ccccc2)C1=O
growth [%]: 104
//
Compound: O=C(CSc1nnc(-c2cccs2)n1-c1ccccc1)Nc1ccc(F)cc1
growth [%]: 99.3
